# System: rabbit euglobulin fraction
# Assay Comment: In vitro euglobulin clot lysis time (ECLT)
# Assay type: biochemical
# Condition Details: dosage differs per compound (1.3-6.7 μg; UK 5 IU); 96 well microtiter plate; n = 6; NS control 200.01 ± 15.26
Ends that are not written are not given here.
Property Measured: Euglobulin clot lysis time, x ± SD (min)
# output: bare number, implied unit min

Lookup result for 3S-1,2,3,4-tetrahydro-β-carboline-3-carboxyl-Lys-Arg-Pro-Ala-Lys-OH (KRPAK-OH; not fully specified (N-terminus); printed as 3S-1,2,3,4-tetrahydro-β-carboline-3-carboxyl-Lys-Arg-Pro-Ala-Lys-OH) [compound 13] ; measured Euglobulin clot lysis time, x ± SD: 214.11

Query 3S-1,2,3,4-tetrahydro-β-carboline-3-carboxyl-Asn-Arg-Pro-Ala-Lys-OH (NRPAK-OH; not fully specified (N-terminus); printed as 3S-1,2,3,4-tetrahydro-β-carboline-3-carboxyl-Asn-Arg-Pro-Ala-Lys-OH) [compound 15] yields Euglobulin clot lysis time, x ± SD of 213.12

substance 3S-1,2,3,4-tetrahydro-β-carboline-3-carboxyl-Gly-Arg-Pro-Ala-Lys-OH (GRPAK-OH; not fully specified (N-terminus); printed as 3S-1,2,3,4-tetrahydro-β-carboline-3-carboxyl-Gly-Arg-Pro-Ala-Lys-OH) [compound 12] , Euglobulin clot lysis time, x ± SD observed: 213.35

Per the record, H-Lys-Arg-Pro-Ala-Lys-OH (H-KRPAK-OH) [compound 3] has Euglobulin clot lysis time, x ± SD of 221.28

###

# Tested on: rabbit euglobulin fraction
# Assay Comment: In vitro euglobulin clot lysis time (ECLT)
# Type: biochemical
# Condition Details: dosage differs per compound (1.3-6.7 μg; UK 5 IU); 96 well microtiter plate; n = 6; NS control 200.01 ± 15.26
Marks after values point to notes of the source that are not given here. Ends that are not written are not given here.
Property Measured: Euglobulin clot lysis time, x ± SD

So, H-Pro-Ala-Lys-OH [compound 8] ? Its Euglobulin clot lysis time, x ± SD was 80.68 ± 20.34^a,b min

For reference, reported Euglobulin clot lysis time, x ± SD for H-Arg-Pro-Ala-Lys-OH (H-RPAK-OH) [compound 7] stands at 85.22 ± 20.40^a,b min

For this substance ( 3S-(2-Gly-Arg-Pro-Ala-Lys)-1,2,3,4-tetrahydro-β-carboline-3-carboxylic acid (GRPAK; not fully specified (C-terminus)) [compound 22] ), measured Euglobulin clot lysis time, x ± SD is 98.02 ± 25.21^a min

Lookup result for H-Gly-Arg-Pro-Ala-Lys-OH (H-GRPAK-OH) [compound 2] ; measured Euglobulin clot lysis time, x ± SD: 89.90 ± 20.05^a,b min
